- conditions-used: in acetonitrile, 273.15 K
value-kind: solubility (mole fraction)
// keep it numeric: no unit symbol after the value

Q. Entry under review: Cc1ccc(S(N)(=O)=O)cc1 . Reported solubility (mole fraction)?
A. 0.0408

====

- conditions-used: in isopropanol, 273.15 K
value-kind: solubility (mole fraction)
// keep it numeric: no unit symbol after the value

Q. Entry under review: Cc1ccc(S(N)(=O)=O)cc1 . Reported solubility (mole fraction)?
A. 0.0077

====

- conditions-used: in n-propanol, 322.15 K
value-kind: solubility (mole fraction)
// keep it numeric: no unit symbol after the value

Q. Entry under review: Cc1ccc(S(N)(=O)=O)cc1 . Reported solubility (mole fraction)?
A. 0.0554

====

- conditions-used: in isopentanol, 294.15 K
value-kind: solubility (mole fraction)
// keep it numeric: no unit symbol after the value

Q. Entry under review: Cc1ccc(S(N)(=O)=O)cc1 . Reported solubility (mole fraction)?
A. 0.0114

====

- conditions-used: in ethyl acetate, 317.65 K
value-kind: solubility (mole fraction)
// keep it numeric: no unit symbol after the value

Q. Entry under review: Cc1ccc(S(N)(=O)=O)cc1 . Reported solubility (mole fraction)?
A. 0.0897

====

- conditions-used: in n-butanol, 317.65 K
value-kind: solubility (mole fraction)
// keep it numeric: no unit symbol after the value

Q. Entry under review: Cc1ccc(S(N)(=O)=O)cc1 . Reported solubility (mole fraction)?
A. 0.0363

====

- conditions-used: in n-butanol, 289.15 K
value-kind: solubility (mole fraction)

Q. Entry under review: Cc1ccc(S(N)(=O)=O)cc1 . Reported solubility (mole fraction)?
A. 0.0124

====

- conditions-used: in cyclohexanone, 309.15 K
value-kind: solubility (mole fraction)
// keep it numeric: no unit symbol after the value

Q. Entry under review: Cc1ccc(S(N)(=O)=O)cc1 . Reported solubility (mole fraction)?
A. 0.192

====

- conditions-used: in ethanol, 313.15 K
value-kind: solubility (mole fraction)
// keep it numeric: no unit symbol after the value

Q. Entry under review: Cc1ccc(S(N)(=O)=O)cc1 . Reported solubility (mole fraction)?
A. 0.0592

====

- conditions-used: in ethyl formate, 313.15 K
value-kind: solubility (mole fraction)
// keep it numeric: no unit symbol after the value

Q. Entry under review: Cc1ccc(S(N)(=O)=O)cc1 . Reported solubility (mole fraction)?
A. 0.0655

====

- conditions-used: in ethyl acetate, 283.65 K
value-kind: solubility (mole fraction)
// keep it numeric: no unit symbol after the value

Q. Entry under review: Cc1ccc(S(N)(=O)=O)cc1 . Reported solubility (mole fraction)?
A. 0.0442

====

- conditions-used: in ethyl acetate, 308.95 K
value-kind: solubility (mole fraction)
// keep it numeric: no unit symbol after the value

Q. Entry under review: Cc1ccc(S(N)(=O)=O)cc1 . Reported solubility (mole fraction)?
A. 0.0718

====

- conditions-used: in acetone, 273.15 K
value-kind: solubility (mole fraction)
// keep it numeric: no unit symbol after the value

Q. Entry under review: Cc1ccc(S(N)(=O)=O)cc1 . Reported solubility (mole fraction)?
A. 0.128

====

- conditions-used: in isobutanol, 289.15 K
value-kind: solubility (mole fraction)
// keep it numeric: no unit symbol after the value

Q. Entry under review: Cc1ccc(S(N)(=O)=O)cc1 . Reported solubility (mole fraction)?
A. 0.00846

====

- conditions-used: in isopropanol, 283.65 K
value-kind: solubility (mole fraction)
// keep it numeric: no unit symbol after the value

Q. Entry under review: Cc1ccc(S(N)(=O)=O)cc1 . Reported solubility (mole fraction)?
A. 0.0114

====

- conditions-used: in cyclohexanone, 273.15 K
value-kind: solubility (mole fraction)
// keep it numeric: no unit symbol after the value

Q. Entry under review: Cc1ccc(S(N)(=O)=O)cc1 . Reported solubility (mole fraction)?
A. 0.122

====

- conditions-used: in cyclohexanone, 319.15 K
value-kind: solubility (mole fraction)
// keep it numeric: no unit symbol after the value

Q. Entry under review: Cc1ccc(S(N)(=O)=O)cc1 . Reported solubility (mole fraction)?
A. 0.226

====

- conditions-used: in n-butanol, 279.15 K
value-kind: solubility (mole fraction)
// keep it numeric: no unit symbol after the value

Q. Entry under review: Cc1ccc(S(N)(=O)=O)cc1 . Reported solubility (mole fraction)?
A. 0.00871

====

- conditions-used: in ethyl acetate, 293.65 K
value-kind: solubility (mole fraction)
// keep it numeric: no unit symbol after the value

Q. Entry under review: Cc1ccc(S(N)(=O)=O)cc1 . Reported solubility (mole fraction)?
A. 0.0541

====

- conditions-used: in ethyl formate, 319.15 K
value-kind: solubility (mole fraction)
// keep it numeric: no unit symbol after the value

Q. Entry under review: Cc1ccc(S(N)(=O)=O)cc1 . Reported solubility (mole fraction)?
A. 0.0784

====

- conditions-used: in ethanol, 279.15 K
value-kind: solubility (mole fraction)
// keep it numeric: no unit symbol after the value

Q. Entry under review: Cc1ccc(S(N)(=O)=O)cc1 . Reported solubility (mole fraction)?
A. 0.0203

====

- conditions-used: in cyclopentanone, 294.15 K
value-kind: solubility (mole fraction)
// keep it numeric: no unit symbol after the value

Q. Entry under review: Cc1ccc(S(N)(=O)=O)cc1 . Reported solubility (mole fraction)?
A. 0.185

====

- conditions-used: in methyl acetate, 289.15 K
value-kind: solubility (mole fraction)
// keep it numeric: no unit symbol after the value

Q. Entry under review: Cc1ccc(S(N)(=O)=O)cc1 . Reported solubility (mole fraction)?
A. 0.0676

====

- conditions-used: in ethyl acetate, 322.15 K
value-kind: solubility (mole fraction)
// keep it numeric: no unit symbol after the value

Q. Entry under review: Cc1ccc(S(N)(=O)=O)cc1 . Reported solubility (mole fraction)?
A. 0.1

====

- conditions-used: in methanol, 313.15 K
value-kind: solubility (mole fraction)

Q. Entry under review: Cc1ccc(S(N)(=O)=O)cc1 . Reported solubility (mole fraction)?
A. 0.0971

====

- conditions-used: in n-pentanol, 313.15 K
value-kind: solubility (mole fraction)
// keep it numeric: no unit symbol after the value

Q. Entry under review: Cc1ccc(S(N)(=O)=O)cc1 . Reported solubility (mole fraction)?
A. 0.0271

====

- conditions-used: in n-propanol, 293.65 K
value-kind: solubility (mole fraction)
// keep it numeric: no unit symbol after the value

Q. Entry under review: Cc1ccc(S(N)(=O)=O)cc1 . Reported solubility (mole fraction)?
A. 0.0183

====

- conditions-used: in dichloromethane, 299.15 K
value-kind: solubility (mole fraction)

Q. Entry under review: Cc1ccc(S(N)(=O)=O)cc1 . Reported solubility (mole fraction)?
A. 0.00877

====

- conditions-used: in methyl acetate, 279.15 K
value-kind: solubility (mole fraction)
// keep it numeric: no unit symbol after the value

Q. Entry under review: Cc1ccc(S(N)(=O)=O)cc1 . Reported solubility (mole fraction)?
A. 0.0558

====

- conditions-used: in ethyl acetate, 289.15 K
value-kind: solubility (mole fraction)
// keep it numeric: no unit symbol after the value

Q. Entry under review: Cc1ccc(S(N)(=O)=O)cc1 . Reported solubility (mole fraction)?
A. 0.0481

====

- conditions-used: in dichloromethane, 303.65 K
value-kind: solubility (mole fraction)
// keep it numeric: no unit symbol after the value

Q. Entry under review: Cc1ccc(S(N)(=O)=O)cc1 . Reported solubility (mole fraction)?
A. 0.0103

====

- conditions-used: in isopropanol, 298.85 K
value-kind: solubility (mole fraction)
// keep it numeric: no unit symbol after the value

Q. Entry under review: Cc1ccc(S(N)(=O)=O)cc1 . Reported solubility (mole fraction)?
A. 0.0201

====

- conditions-used: in acetonitrile, 284.15 K
value-kind: solubility (mole fraction)
// keep it numeric: no unit symbol after the value

Q. Entry under review: Cc1ccc(S(N)(=O)=O)cc1 . Reported solubility (mole fraction)?
A. 0.0538

====

- conditions-used: in methyl acetate, 303.65 K
value-kind: solubility (mole fraction)
// keep it numeric: no unit symbol after the value

Q. Entry under review: Cc1ccc(S(N)(=O)=O)cc1 . Reported solubility (mole fraction)?
A. 0.0925

====

- conditions-used: in cyclohexanone, 299.15 K
value-kind: solubility (mole fraction)
// keep it numeric: no unit symbol after the value

Q. Entry under review: Cc1ccc(S(N)(=O)=O)cc1 . Reported solubility (mole fraction)?
A. 0.169

====

- conditions-used: in n-pentanol, 273.15 K
value-kind: solubility (mole fraction)

Q. Entry under review: Cc1ccc(S(N)(=O)=O)cc1 . Reported solubility (mole fraction)?
A. 0.00607

====

- conditions-used: in ethyl acetate, 279.15 K
value-kind: solubility (mole fraction)
// keep it numeric: no unit symbol after the value

Q. Entry under review: Cc1ccc(S(N)(=O)=O)cc1 . Reported solubility (mole fraction)?
A. 0.0401

====

- conditions-used: in acetonitrile, 303.65 K
value-kind: solubility (mole fraction)

Q. Entry under review: Cc1ccc(S(N)(=O)=O)cc1 . Reported solubility (mole fraction)?
A. 0.093

====

- conditions-used: in acetonitrile, 299.15 K
value-kind: solubility (mole fraction)
// keep it numeric: no unit symbol after the value

Q. Entry under review: Cc1ccc(S(N)(=O)=O)cc1 . Reported solubility (mole fraction)?
A. 0.0826
